# TESTED ON: S1P1/EDG1 (Homo sapiens, UniProt P21453)
# Sequence (P21453 whole entry): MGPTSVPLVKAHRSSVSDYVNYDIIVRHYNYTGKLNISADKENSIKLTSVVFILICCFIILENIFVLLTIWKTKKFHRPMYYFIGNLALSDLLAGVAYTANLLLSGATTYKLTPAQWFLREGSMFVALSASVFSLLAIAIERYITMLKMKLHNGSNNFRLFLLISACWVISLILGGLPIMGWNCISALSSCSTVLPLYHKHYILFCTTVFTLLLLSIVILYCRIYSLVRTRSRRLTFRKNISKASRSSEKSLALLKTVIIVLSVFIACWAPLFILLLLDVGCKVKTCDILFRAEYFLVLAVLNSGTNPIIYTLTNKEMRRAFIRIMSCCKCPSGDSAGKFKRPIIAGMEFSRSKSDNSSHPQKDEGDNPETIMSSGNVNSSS
# EXPERIMENTAL PROTOCOL: S1P1 CRE-bla CHOK1 reporter assay, inhibition of Forskolin induced cAMP
# Assay type: cell-based
# REPORTED CONDITIONS: agonist activity range; S1P1 CRE-bla CHOK1 cells, 2 μM Forskolin; read-out: S1P1 ACTIVITY
pEC50: −log10 of the molar value.

- SMILES REPR: "CC(C)Oc1ccc(-c2ncc(-c3cccc4c3CC[C@H]4NS(=O)(=O)CCN3CC[C@@H](N)C3)s2)cc1C#N"
  pEC50: "< 8.30"
- SMILES REPR: "CC(C)Oc1ccc(-c2nnc(-c3cccc4c3CCC[C@H]4NCc3ccccn3)s2)cc1C#N"
  pEC50: "8.30 to 9.30"
- SMILES REPR: "CC(C)Oc1ccc(-c2ncc(-c3cccc4c3CC[C@H]4NS(=O)(=O)CCN3CCCCC3)s2)cc1C#N"
  pEC50: "< 8.30"
- SMILES REPR: "COCCS(=O)(=O)N[C@@H]1CCCc2c(-c3cnc(-c4ccc(OC(C)C)c(C#N)c4)s3)cccc21"
  pEC50: "8.30 to 9.30"
- SMILES REPR: "CC(C)Oc1ccc(-c2nnc(-c3cccc4c3CCC[C@@H]4NCc3cnc[nH]3)s2)cc1C#N"
  pEC50: "8.30 to 9.30"
- SMILES REPR: "CC(C)Oc1ccc(-c2ncc(-c3cccc4c3CC[C@H]4NS(=O)(=O)CCN3CCCC3)s2)cc1C#N"
  pEC50: "8.30 to 9.30"
- SMILES REPR: "CC(C)Oc1ccc(-c2ncc(-c3cccc4c3CC[C@H]4NC(=O)N3CC[C@@H](N)C3)s2)cc1C#N"
  pEC50: "9.30 to 10.30"

The reported numbers originate from patent US9481659B2.
